System: PDIA6 C55 (Q15084) (Homo sapiens, UniProt Q15084)
Sequence (Q15084 20-440): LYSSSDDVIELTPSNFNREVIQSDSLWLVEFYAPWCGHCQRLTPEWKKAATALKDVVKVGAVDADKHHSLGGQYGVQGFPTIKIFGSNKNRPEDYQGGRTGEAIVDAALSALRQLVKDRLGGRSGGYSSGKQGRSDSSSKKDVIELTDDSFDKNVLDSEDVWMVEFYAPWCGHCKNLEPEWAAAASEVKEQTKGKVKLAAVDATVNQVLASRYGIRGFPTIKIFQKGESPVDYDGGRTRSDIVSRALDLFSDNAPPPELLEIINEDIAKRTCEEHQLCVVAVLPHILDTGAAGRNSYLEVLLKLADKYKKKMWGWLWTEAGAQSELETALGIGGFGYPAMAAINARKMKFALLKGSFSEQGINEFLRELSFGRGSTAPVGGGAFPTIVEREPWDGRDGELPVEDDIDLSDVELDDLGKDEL
Measurement description: Competitive isoTOP-ABPP, cell lysates
Format: binding
Condition notes: 500 μm, in-vitro_ramos_231
Protocol: TEV digests were pressure loaded onto a 250 μm (inner diameter) fused silica capillary column packed with C18 resin (Aqua 5 μm, Phenomenex). The samples were analyzed by multidimensional liquid chromatography tandem mass spectrometry (MudPIT), using an LTQ-Velos Orbitrap mass spectrometer (Thermo Scientific) coupled to an Agilent 1200-series quaternary pump. […]
Binary call on isoTOP-ABPP reactivity profile ratio, Q15084_C55 with cut-off 1: strictly below means y, and equality or higher means n.

>  <Structure string>
Cc1ccc(C(F)(F)F)cc1NC(=O)CCl

>  <System>
PDIA6 C55 (Q15084) (Homo sapiens, UniProt Q15084)

>  <Label class>
n

$$$$
>  <Structure string>
C=CC(=O)N(c1ccccc1)C1CCCCC1

>  <System>
PDIA6 C55 (Q15084) (Homo sapiens, UniProt Q15084)

>  <Label class>
y

$$$$
>  <Structure string>
C=CC(=O)N1CCC(Cc2ccccc2)CC1

>  <System>
PDIA6 C55 (Q15084) (Homo sapiens, UniProt Q15084)

>  <Label class>
y

$$$$
>  <Structure string>
O=C(CCl)N1CCc2cc(Br)ccc21

>  <System>
PDIA6 C55 (Q15084) (Homo sapiens, UniProt Q15084)

>  <Label class>
n

$$$$
>  <Structure string>
O=C(CCl)Nc1cccc2ncccc12

>  <System>
PDIA6 C55 (Q15084) (Homo sapiens, UniProt Q15084)

>  <Label class>
n

$$$$
>  <Structure string>
COc1cc(NC(=O)CCl)cc(OC)c1

>  <System>
PDIA6 C55 (Q15084) (Homo sapiens, UniProt Q15084)

>  <Label class>
n

$$$$
>  <Structure string>
CCCN(C(=O)CCl)c1c(N)n(CCC)c(=O)[nH]c1=O

>  <System>
PDIA6 C55 (Q15084) (Homo sapiens, UniProt Q15084)

>  <Label class>
y

$$$$
>  <Structure string>
Cc1ncc(CO)c(CNC(=O)CCl)c1O

>  <System>
PDIA6 C55 (Q15084) (Homo sapiens, UniProt Q15084)

>  <Label class>
n

$$$$
>  <Structure string>
O=C(CCl)Nc1ccc(-c2ccccc2)cc1

>  <System>
PDIA6 C55 (Q15084) (Homo sapiens, UniProt Q15084)

>  <Label class>
n

$$$$
